test system: PC49; assay: qHTS profiling for inhibitors of Plasmodium falciparum proliferation (AID 504749);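 further: 0% = DMSO vehicle and full inhibition = artemisinin control; nearly all actives have a fitted effect of over 60% in size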; conditions: P. falciparum in erythrocytes, SYBR Green DNA, 72 h; series mostly up to 12.8 µM
Inconclusive results are not listed. Activity calls are given as the source filed them. The call rests on the fitted dose curve; in most records, active means well fitted inhibition curve with a large enough effect; inconclusive means small, poorly fitted or top-dose-only effect; inactive means flat fitted curve, though single readings scatter.
Response enum: active, inactive

Some entries whose results are on file:
>>> class_label("O=C(O)[C@@H]1[C@@H]2C[C@H]3c4[nH]c5ccccc5c4CCN3C[C@@H]2CC[C@@H]1O")
"inactive"
>>> class_label("COc1c(O[C@H]2O[C@@H](CO)[C@@H](O)[C@@H](O)[C@@H]2O)cc2c(c1OC)-c1ccc(SC)c(=O)cc1[C@H](NC(C)=O)CC2")
"inactive"
>>> class_label("C[C@H](C(=O)O)c1cccc(Oc2ccccc2)c1")
"inactive"
>>> class_label("CCC(C)C(=O)OC1CC(O)C=C2C=CC(C)C(CCC(O)CC(O)CC(=O)O)C21 (stereo not given)")
"inactive"
>>> class_label("CC1=C(C(=O)O)N2C(=O)[C@@H](NC(=O)[C@@H](N)c3ccc(O)cc3)[C@@H]2SC1")
"inactive"

Data request: Lab log entry: `O=C(NC[C@@H](O)CO)c1c(I)c(C(=O)NC[C@@H](O)CO)c(I)c(N(CCO)C(=O)CO)c1I` — outcome as called in the assay?
Data returned: inactive

---

Listed molecules paired with reported Z-AUC
assay: qHTS drug screen for cell cycle checkpoint inhibitors in PARPi-resistant BRCA-mutant ovarian cancer cell lines. (AID 1963452); conditions: PEO1/OlaR viability, CellTiter-Glo luminescence, 96 h; stronger effect = lower value
Field format: numeric only.

The following molecules have reported results that may help.
>>> quantitative_result("Cc1cc(O[C@@H](CCC(F)(F)F)c2ccc(C(=O)NCCC(=O)O)cc2)cc(C)c1-c1ccc(C(C)(C)C)cc1")
0.000666
>>> quantitative_result("N#Cc1cc2cc(CN3CCC(Nc4ncnc5sc(CC(F)(F)F)cc45)CC3)c(O)cc2n1Cc1cn[nH]c1")
-1.24
>>> quantitative_result("C=C1C(=O)OC2/C=C(/C)CC/C=C(/C)CCC12 (centres undefined)")
1.69

Data request: // returns reported Z-AUC for input COc1ncc(Nc2ncc(C(C)N3CCN(S(C)(=O)=O)CC3)cc2-c2nc(C)nc(N)n2)cc1F (centres undefined)
Data returned: 0.314

Data request: // returns reported Z-AUC for input `CC(C)(C)NC(=O)c1cncn1C1CCN(c2ccc(-c3nnc(C(F)(F)F)o3)cn2)CC1`
Data returned: -0.537

---

assay: qHTS profiling for inhibitors of Plasmodium falciparum proliferation (AID 504749);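 further: 0% = DMSO vehicle and full inhibition = artemisinin control; nearly all actives have a fitted effect of over 60% in size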; settings: P. falciparum in erythrocytes, SYBR Green DNA, 72 h; at 28.7 µM (top of the series); parasite line A
Records with an inconclusive call do not appear.
metric: activity, negative = inhibition (%)
The response must be a number in % with no trailing unit.

The following compounds have reported results that may help.
>>> quantitative_result("CN(C)CCOC(=O)[C@@H](c1ccccc1)C1(O)CCCC1")
22.6
>>> quantitative_result("CC1CCC(C(C)C)C(=O)C1 (stereo unspecified)")
0.527
>>> quantitative_result("CC1(C)SC2C(N3C(=O)C(c4ccccc4)NC3(C)C)C(=O)N2C1C(=O)O (stereo unspecified)")
-1.6
>>> quantitative_result("COc1ccc(-c2cc(=O)c3c(O)cc(O[C@H]4OC(COC5OC(C)C(O)C(O)[C@H]5O)C(O)C(O)C4O)cc3o2)cc1O (stereo partly specified)")
15
>>> quantitative_result("O=C1OC(CO)C(O)C(O)C1O (stereo unspecified)")
11.9

Data request: // returns reported activity, negative = inhibition for input `O=C1O[C@@H]([C@@H](O)CO)[C@@H](O)[C@H]1O`
Data returned: -5.65

---

test system: CP329; assay: qHTS profiling for inhibitors of Plasmodium falciparum proliferation (AID 504749);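 further: 0% = DMSO vehicle and full inhibition = artemisinin control; nearly all actives have a fitted effect of over 60% in size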; settings: P. falciparum in erythrocytes, SYBR Green DNA, 72 h; series mostly up to 12.8 µM
Inconclusive results are not listed. Active and inactive are the calls of the source. Calls come from the whole dose curve; as a rule, active = well fitted inhibition curve with a large enough effect; inconclusive = small, poorly fitted or top-dose-only effect; inactive = flat fitted curve, though single readings scatter.
metric: outcome

The following compounds have reported results that may help.
>>> result("NCc1ccccc1CC(=O)N[C@@H]1C(=O)N2C(C(=O)O)=C(CSc3nnnn3CC(=O)O)CS[C@@H]12")
"inactive"
>>> result("CC[C@H]1NC(=O)c2cc(S(N)(=O)=O)c(Cl)cc2N1")
"inactive"
>>> result("Cc1onc(-c2ccccc2Cl)c1C(=O)N[C@H]1C(=O)N2[C@H]1SC(C)(C)[C@H]2C(=O)O")
"inactive"
>>> result("COc1ccc2c(c1)N(C[C@@H](C)CN(C)C)c1ccccc1S2")
"inactive"

Data request: // returns reported outcome for input `C[C@H](C(=O)O)c1cccc(Oc2ccccc2)c1`
Data returned: inactive

Data request: // returns reported outcome for input CCC(C)C(=O)OC1CCC=C2C=CC(C)C(CCC3CC(O)CC(=O)O3)[C@@H]21 (stereo not given in full)
Data returned: inactive

Data request: // returns reported outcome for input `CN1CCN([C@@H](c2ccccc2)c2ccc(Cl)cc2)CC1`
Data returned: inactive

Data request: // returns reported outcome for input `CC(C)NC[C@H]1CCc2cc(CO)c([N+](=O)[O-])cc2N1`
Data returned: inactive

Data request: // returns reported outcome for input `CCN1CCC[C@@H](OC(=O)C(c2ccccc2)c2ccccc2)C1`
Data returned: inactive

Data request: // returns reported outcome for input `CCOC(=O)O[C@]1(C(=O)COC(=O)CC)CC[C@@H]2[C@@H]3CCC4=CC(=O)C=C[C@@]4(C)[C@H]3[C@H](O)C[C@]21C`
Data returned: inactive

---

biological target: Rap guanine nucleotide exchange factor 3 (Homo sapiens) (UniProt O95398); assay: Counterscreen qHTS for antagonist of cAMP-regulated guanine nucleotide exchange factor 3 (EPAC1) (AID 1645888); conditions: Rap1B-BODIPY-GDP nucleotide exchange, fluorescence; series mostly up to 154 µM;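 further: fluorescence loss as bound BODIPY-GDP is released from Rap1B; % of control where 0% means no effect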
Sequence (O95398 whole entry, looked up): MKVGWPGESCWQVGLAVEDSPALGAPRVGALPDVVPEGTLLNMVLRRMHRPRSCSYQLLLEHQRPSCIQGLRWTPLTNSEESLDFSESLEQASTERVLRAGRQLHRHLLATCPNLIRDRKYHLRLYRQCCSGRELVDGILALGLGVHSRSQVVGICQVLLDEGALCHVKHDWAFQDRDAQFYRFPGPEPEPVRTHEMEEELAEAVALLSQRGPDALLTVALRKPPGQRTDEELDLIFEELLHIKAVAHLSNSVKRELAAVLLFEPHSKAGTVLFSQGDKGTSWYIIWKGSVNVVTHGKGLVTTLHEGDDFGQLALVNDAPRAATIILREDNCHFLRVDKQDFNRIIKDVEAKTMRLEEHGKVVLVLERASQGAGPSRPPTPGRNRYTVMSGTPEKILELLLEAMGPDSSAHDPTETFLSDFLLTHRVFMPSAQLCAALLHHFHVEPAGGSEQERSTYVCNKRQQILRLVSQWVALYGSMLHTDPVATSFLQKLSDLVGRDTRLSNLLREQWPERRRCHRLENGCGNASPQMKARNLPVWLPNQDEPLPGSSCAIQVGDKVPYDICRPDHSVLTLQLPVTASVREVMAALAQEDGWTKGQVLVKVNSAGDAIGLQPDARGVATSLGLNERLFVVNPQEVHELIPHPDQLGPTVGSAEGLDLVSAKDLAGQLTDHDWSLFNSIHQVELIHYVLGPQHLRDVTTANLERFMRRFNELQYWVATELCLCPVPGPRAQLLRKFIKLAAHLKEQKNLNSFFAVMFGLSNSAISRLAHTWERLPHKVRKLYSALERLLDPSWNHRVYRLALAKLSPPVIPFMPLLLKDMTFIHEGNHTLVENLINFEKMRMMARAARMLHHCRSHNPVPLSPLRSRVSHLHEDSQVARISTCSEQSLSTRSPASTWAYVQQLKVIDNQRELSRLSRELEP
Inconclusive results are not listed. Activity calls are given as the source filed them. The call rests on the fitted dose curve; in most records, active means well fitted inhibition curve with a large enough effect; inconclusive means small, poorly fitted or top-dose-only effect; inactive means no such curve, though single readings can be large or run the other way.
metric: activity change, negative = inhibition

The following compounds have reported results that may help.
>>> result("CN(C)CC/C=C1/c2ccccc2Sc2c(O)cc(Cl)cc21")
"inactive"
>>> result("O=C(Nc1ccccc1C(F)(F)F)N1CCC(CN2CCc3ccccc3C2)CC1")
"inactive"
>>> result("COc1ccccc1NC(=O)COC(=O)c1ccc([N+](=O)[O-])s1")
"inactive"
>>> result("Cc1ccc(N(Cc2cccs2)C(=O)c2ccccc2Cl)cc1")
"inactive"
>>> result("Cc1ccc2c(c1)c(/C=C/c1cc[n+](C)cc1)c(C)n2C")
"inactive"

Data request: // returns reported activity change, negative = inhibition for input CC(=O)C1=C(C)OC2(O)c3ccccc3C(=O)C12O (stereo unspecified)
Data returned: -10.4% [at 30.8 µM] (inactive)

Data request: // returns reported activity change, negative = inhibition for input COc1cccc(/C(=N/O)C2CC2c2ccc(Cl)cc2)c1 (stereo unspecified)
Data returned: -11.7% [at 30.8 µM] (inactive)

Data request: // returns reported activity change, negative = inhibition for input O=C1CSC2(C(=O)N(Cc3cccc(C(F)(F)F)c3)c3ccccc32)N1c1ccc(F)c(F)c1 (stereo unspecified)
Data returned: inactive

Data request: // returns reported activity change, negative = inhibition for input `COc1ccccc1C(=O)NC(=O)Cn1nc(C)c([N+](=O)[O-])c1C`
Data returned: 11.7% [at 30.8 µM] (inactive)

Data request: // returns reported activity change, negative = inhibition for input `Cc1ccc(Cn2c(SCC(=O)N/N=C/c3ccc(C)o3)nc3ccccc32)cc1`
Data returned: inactive

Data request: // returns reported activity change, negative = inhibition for input `C/C=C/C(=O)N1c2ccc(C)cc2C(C)=CC1(C)C`
Data returned: inactive

---

assay: qHTS Assay for Lipid Storage Modulators (AID 1519); conditions: Drosophila S3 cells, BODIPY lipid droplet/cell ratio, laser cytometry; measured here: cell count channel max response; cells loaded with oleic acid
Records with an inconclusive call do not appear.
Listed molecules paired with reported max response
The response must be a number in % with no trailing unit.

>>> quantitative_result("CC=C(/C(=C/C)c1ccc(O)cc1)c1ccc(O)cc1")
-14.6
>>> quantitative_result("C#C[C@@]1(O)CC[C@@H]2[C@@H]3CCC4=CC(=O)CC[C@@H]4[C@H]3CC[C@]21CC")
-10.3
>>> quantitative_result("COC(=O)CC1C(C)(C)C2(O)OC34CC2C(=O)[C@@]1(C)C3CC[C@]1(C)C4=CC(=O)OC1c1ccoc1 (some centres undefined)")
-0.136
>>> quantitative_result("CC(C)CCCC(C)C1CCC2C3C(=O)C=C4CC(O)CC[C@@]4(C)C3CC[C@@]12C (some centres undefined)")
8.46
>>> quantitative_result("CC(=O)OC1CC[C@@]2(C)C3=CC(=O)[C@]4(C)C(CC5OC6(OCC(C)CC6Br)C(C)C54)C3CC[C@H]2C1 (some centres undefined)")
-17.7

Data request: // returns reported max response for input O=C(O)[C@@H](O)[C@@H](O)[C@@H](O)[C@@H](O)C(=O)O (tested in a mixture with another compound)
Data returned: -10.9

Data request: // returns reported max response for input `O=S(=O)(O)c1cc(N=C=S)ccc1/C=C/c1ccc(N=C=S)cc1S(=O)(=O)O`
Data returned: -3.47

Data request: // returns reported max response for input COc1cccc2c1CCC1CC(=O)CC[C@@]21C (some centres undefined)
Data returned: -12.9

Data request: // returns reported max response for input CC1(C)SC2C(NC(=O)COc3ccccc3)C(=O)N2C1C(=O)O (centres undefined)
Data returned: 17.3
